Target: Histone deacetylase HD2 (Zea mays)
Sequence (Q94F81 whole entry): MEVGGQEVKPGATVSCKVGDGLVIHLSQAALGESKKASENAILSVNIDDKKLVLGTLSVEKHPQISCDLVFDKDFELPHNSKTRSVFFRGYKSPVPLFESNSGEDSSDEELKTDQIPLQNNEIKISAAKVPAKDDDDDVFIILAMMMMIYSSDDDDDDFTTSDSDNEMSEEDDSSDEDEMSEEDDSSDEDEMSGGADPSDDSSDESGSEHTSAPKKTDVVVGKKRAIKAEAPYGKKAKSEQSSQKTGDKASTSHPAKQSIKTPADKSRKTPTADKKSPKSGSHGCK
Test: Inhibition of maize Histone deacetylase 2 (HD-2) activity
property label: pIC50
The value called pIC50 is obtained by taking minus log10 of the concentration in mol/L.

CN(C)c1ccc(C(=O)NCCCCCCC(=O)NO)cc1
7.00

Recall and state the measured pIC50 for CN(C)c1ccc(C(=O)NCCCCCC(=O)NO)cc1 .
7.00

Recall and state the measured pIC50 for CN(C)c1ccc(C(=O)NCc2ccc(C(=O)NO)cc2)cc1 .
6.74

Recall and state the measured pIC50 for CN(C)c1ccc(C(=O)NCCCCC(=O)NO)cc1 .
5.70
